Reference source for all entries: patent US20250145697A1

Biological target: T1, ApoE4 amino acids 1-210, expressed on yeast (human, UniProt P02649 19-228)
T1 construct: with myc tag, on yeast cells; range counts on the mature protein; also called N terminal domain; not shown: myc tag and yeast surface-display partner
T1 chain: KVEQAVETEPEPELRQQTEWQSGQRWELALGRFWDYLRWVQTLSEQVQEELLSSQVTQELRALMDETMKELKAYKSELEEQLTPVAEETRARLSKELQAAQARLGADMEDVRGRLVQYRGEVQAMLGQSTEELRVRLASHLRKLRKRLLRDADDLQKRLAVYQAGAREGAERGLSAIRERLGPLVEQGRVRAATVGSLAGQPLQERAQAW
Assay: yeast display of myc-tagged ApoE4 fragment, antibody staining

Binder	binding result
HJ152 (antibody, V domains shown, murine monoclonal antibody from hybridoma; also called HJ152B (biotinylated)) VH: EVKLEESGGGLVQPGGSMKLSCAASGFSFSDAWMDWVRQSPEKGLEWVAEIRNKADNHATFYAESVKGRFTISRDDSKSSVYLQMNSLRAEDSGIYYCLLWDYWGQGTTLTVSS VL: DIVMSQSPSSLAVSAGEKVTMSCKSSQSLLNSRTRKHFLAWYQQKPGQSPKVLIYWASSRESGVPDRFTGSGSGTDFTLTISSVQAEDLAVYYCKQSCNLPWTFGGGTKLEIKR	binds
HJ1514 (antibody, V domains shown, murine monoclonal antibody from hybridoma) VH: EVNLEESGGGLVQPGGSMKLSCAASGFTFSDAWMDWVRQSPEKGLEWVAEIRNKADNHATYYAESVKGRFTISRNDSKSSVYLQMNSLRTEDTGIYYCVLWDYWGQGTTLTVSS VL: DIVMSQSPSSLAVSAGEKVTMTCKSSQSLLNSRTRKNFLTWYRQKPGQSPKPLIYWASSRESGVPDRFAGSGSGTDFTLTISSVQAEDLAVYYCKQSYNLPWTFGGGTKLEIKR	binds
HJ1518 (antibody, V domains shown, murine monoclonal antibody from hybridoma) VH: QVQLQQSGPELVKPGASVKISCKASGYTFSDYYINWVKQRPGQGLEWIGWIFPGSGSSYYNEKFKGKATLTVDKSSRTAYMLLSSLTSEDSAVYFCARYYGSSPFAYWGQGTLVTVST VL: DVLMTQSPLSLPVSLGDQASISCRSSQSIVHRNGNTYLEWYLQKPGQSPKLLIYKVSNRFSGVPDRFSGSGSGTDFTLKISRVEAEDLGVYYCFQGSHVPYTFGGGTKLEIRR	binds
